Target: human CD33 on primary human dendritic cells (human, UniProt P20138 18-364)
Sequence (P20138 18-364): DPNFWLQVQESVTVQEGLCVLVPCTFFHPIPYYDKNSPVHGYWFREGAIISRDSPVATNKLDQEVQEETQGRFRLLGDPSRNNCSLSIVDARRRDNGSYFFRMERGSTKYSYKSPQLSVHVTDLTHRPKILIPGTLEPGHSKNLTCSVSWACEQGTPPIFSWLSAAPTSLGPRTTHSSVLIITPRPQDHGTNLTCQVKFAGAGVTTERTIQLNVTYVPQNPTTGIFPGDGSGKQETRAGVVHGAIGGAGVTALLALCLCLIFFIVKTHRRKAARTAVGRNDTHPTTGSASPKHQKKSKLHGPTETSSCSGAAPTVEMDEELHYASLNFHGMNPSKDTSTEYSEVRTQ
Assay: cell-based or functional assay
parameter_measured: Maximal reduction in CD33 (% remaining)

anti-CD33 antibody 6C7H26 (antibody, V domains shown, VH/VL only) VH: EVQLVESGGGLVQPGGSLRLSCAGSGFTFSNYIMNWVRQAPGKGLEWVAEIRLKSNNYVTNYAASVKGRFTISRDDSKNSVYLQMNSLKTEDTGVYYCTRAGYYVPFAYWGQGTLVTVSS VL: QLVLTQSPSASASLGASVKLTCTLSSQHSTYTIEWYQQQPEKGPRYLMELKKEGSHSTGDGIPDRFSGSSSGAERYLTISSLQSEDEADYYCGVGDTIKEQFVYVFGGGTKLTVL: 28.3 % remaining
anti-CD33 antibody 6C7H18 (antibody, V domains shown, VH/VL only) VH: EVQLVESGGGLVQPGGSLRLSCAGSGFTFSNYHMNWVRQAPGKGLEWVAEIRLKSNNYVTNYAASVKGRFTISRDDSKNSVYLQMNSLKTEDTGVYYCTRAGYYVPFAYWGQGTLVTVSS VL: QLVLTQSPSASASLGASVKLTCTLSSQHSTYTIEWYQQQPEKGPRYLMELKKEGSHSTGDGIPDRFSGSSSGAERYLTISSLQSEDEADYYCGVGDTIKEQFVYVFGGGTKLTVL: 29.2 % remaining
anti-CD33 antibody 6C7H5 (antibody, V domains shown, Humanized 6C7; VH/VL only; also called parental humanized antibody) VH: EVQLVESGGGLVQPGGSLRLSCAGSGFTFSNYCMNWVRQAPGKGLEWVAEIRLKSNNYVTNYAASVKGRFTISRDDSKNSVYLQMNSLKTEDTGVYYCTRDGYYVPFAYWGQGTLVTVSS VL: QLVLTQSPSASASLGASVKLTCTLSSQHSTYTIEWYQQQPEKGPRYLMELKKDGSHSTGDGIPDRFSGSSSGAERYLTISSLQSEDEADYYCGVGDTIKEQFVYVFGGGTKLTVL: 21 % remaining
anti-CD33 antibody 6C7H29 (antibody, V domains shown, VH/VL only) VH: EVQLVESGGGLVQPGGSLRLSCAGSGFTFSAYSMNWVRQAPGKGLEWVAEIRLKSNNYVTNYAASVKGRFTISRDDSKNSVYLQMNSLKTEDTGVYYCTRAGYYVPFAYWGQGTLVTVSS VL: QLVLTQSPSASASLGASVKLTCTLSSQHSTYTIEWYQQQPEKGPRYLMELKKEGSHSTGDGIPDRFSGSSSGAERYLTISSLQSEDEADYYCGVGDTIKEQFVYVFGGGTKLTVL: 27.3 % remaining
